# assay comment: basal MM1S mitochondrial membrane potential changes, profiling panel, cell-based, JC-1 fluorescence, 24 h, 100 nL compound (AID 1170); note: test concentration not given here
# condition set: higher = more signal
measurement name: z-score
Form field (numeric): enter value without unit.

CC(C)CNC(=O)[C@@H]1c2ccccc2C(=O)N(Cc2ccc(OC(F)(F)F)cc2)[C@H]1c1ccc(CO)cc1; -0.881

*Q* For C=CC[C@]1(C(=O)N(C)C)N=C(c2ccc(OCCCO)cc2)O[C@H]1c1ccccc1CN=[N+]=[N-] , what is its reported z-score?
*A* -0.587

*Q* For O=C1O[C@H](c2ccccc2)[C@H](c2ccccc2)N2[C@H]1[C@@H](C(=O)Nc1nc3ccccc3s1)[C@]1(C(=O)Nc3ccc(C#CCCO)cc31)[C@H]2c1ccccc1OCCO , what is its reported z-score?
*A* -1.16
